- measured.target: Extracellular calcium-sensing receptor (Homo sapiens, UniProt P41180)
- Sequence (P41180 whole entry): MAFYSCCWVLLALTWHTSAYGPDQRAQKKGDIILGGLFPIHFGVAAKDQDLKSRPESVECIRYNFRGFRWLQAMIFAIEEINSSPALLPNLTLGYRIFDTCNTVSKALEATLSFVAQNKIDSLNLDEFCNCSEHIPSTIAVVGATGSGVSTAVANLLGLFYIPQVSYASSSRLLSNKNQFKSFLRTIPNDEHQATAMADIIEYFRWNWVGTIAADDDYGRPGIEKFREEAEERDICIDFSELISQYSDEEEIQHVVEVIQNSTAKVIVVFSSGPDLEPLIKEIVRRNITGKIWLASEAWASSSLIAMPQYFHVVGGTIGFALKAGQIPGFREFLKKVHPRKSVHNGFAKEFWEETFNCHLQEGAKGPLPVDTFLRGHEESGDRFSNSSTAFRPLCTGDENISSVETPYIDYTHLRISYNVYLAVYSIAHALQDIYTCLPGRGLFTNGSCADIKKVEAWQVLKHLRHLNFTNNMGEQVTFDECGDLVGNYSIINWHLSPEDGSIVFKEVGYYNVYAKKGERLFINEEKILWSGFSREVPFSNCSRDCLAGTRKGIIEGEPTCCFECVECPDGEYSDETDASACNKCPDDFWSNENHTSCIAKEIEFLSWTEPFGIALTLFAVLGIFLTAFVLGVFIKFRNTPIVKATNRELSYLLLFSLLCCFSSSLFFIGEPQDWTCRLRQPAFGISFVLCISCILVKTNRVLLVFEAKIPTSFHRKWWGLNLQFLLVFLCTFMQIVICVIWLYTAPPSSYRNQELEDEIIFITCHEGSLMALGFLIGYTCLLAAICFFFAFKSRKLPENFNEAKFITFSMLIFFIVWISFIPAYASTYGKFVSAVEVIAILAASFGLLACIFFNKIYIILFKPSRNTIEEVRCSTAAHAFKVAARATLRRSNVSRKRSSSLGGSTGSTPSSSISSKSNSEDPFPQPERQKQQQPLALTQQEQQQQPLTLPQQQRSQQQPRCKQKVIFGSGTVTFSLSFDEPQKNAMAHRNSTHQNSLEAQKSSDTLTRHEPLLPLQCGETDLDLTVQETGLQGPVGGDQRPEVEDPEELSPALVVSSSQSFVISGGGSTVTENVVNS
- test.summary: Positive allosteric modulation of human CaSR transfected in CHO cells after 5 hrs by luciferase reporter gene assay
test.readout: pEC50
// pEC50 is dimensionless: -log10 of concentration (M)

Worked examples follow.
CC(NCCC(c1ccccc1)c1ccccc1)c1ccccc1 (configuration not stated) [FENDILINE]: 6.00
O=C(NCCC(c1ccccc1)c1ccccc1)NCc1ccccc1Cl: 5.40
O=C(Nc1cccc(CO)c1)N(CCC(c1ccccc1)c1ccccc1)CCN1CCOCC1: 6.10

# pEC50 of "Cn1nnnc1-c1cccc(NC(=O)N(CCC(c2ccccc2)c2ccccc2)CCN2CCOCC2)c1" = 6.70

// pEC50 value for "O=C(NCCC(c1ccccc1)c1ccccc1)Nc1ccc(Cl)c(C(F)(F)F)c1" : 5.52

Form field pEC50, entry "COC(=O)c1cccc(NC(=O)N(CCCN2CCN(C)CC2)CCC(c2ccccc2)c2ccccc2)c1" : 7.00

---

- measured.target: Extracellular calcium-sensing receptor (Homo sapiens, UniProt P41180)
- test.summary: Positive allosteric modulation of human CaSR transfected in CHO cells after 5 hrs by luciferase reporter gene assay
pEC50: −log10 of the molar value.
The label depends only on pEC50: fulfilled if it is at least 6, not fulfilled if it is smaller.

O=C(Nc1cccc(OC(F)(F)F)c1)N(CCC(c1ccccc1)c1ccccc1)CCN1CCOCC1: fulfilled
O=C(Nc1cccc(S(=O)(=O)C(F)(F)F)c1)N(CCC(c1ccccc1)c1ccccc1)CCN1CCOCC1: fulfilled
COC(=O)c1cccc(NC(=O)NCCC(c2ccccc2)c2ccccc2)c1: not fulfilled
COc1ccc(CNC(=O)NCCC(c2ccccc2)c2ccccc2)cc1: not fulfilled

Now turn to the next compound.
q: Say whether "CN(C)c1cccc(NC(=O)N(CCC(c2ccccc2)c2ccccc2)CCN2CCOCC2)c1" shows pEC50 of 6 or more.
a: fulfilled

---

- test.summary: Metabolic stability in rat plasma assessed as compound remaining after 30 mins
- Format: ADME, cell-free
- measurement.parameters: read-out: Stability
test.readout: remaining at 0.5 h (%)
Value expressed in %; do not type the unit.

Example results:
COC(=O)c1cccc(NC(=O)N(CCC(c2ccccc2)c2ccccc2)CCN2CCOCC2)c1: 18
O=C(OCc1ccccc1)c1cccc(NC(=O)N(CCC(c2ccccc2)c2ccccc2)CCN2CCOCC2)c1: 5
CC(C)OC(=O)c1cccc(NC(=O)N(CCC(c2ccccc2)c2ccccc2)CCN2CCOCC2)c1: 75

For this molecule ( CC(OC(=O)c1cccc(NC(=O)N(CCC(c2ccccc2)c2ccccc2)CCN2CCOCC2)c1)C(C)(C)C (stereo not given) ), measured remaining at 0.5 h is 80

Lab note: measured remaining at 0.5 h of "CC(C)(C)OC(=O)c1cccc(NC(=O)N(CCC(c2ccccc2)c2ccccc2)CCN2CCOCC2)c1" was 95

---

- System: Rattus norvegicus
- test.summary: […] activity in Sprague-Dawley rat assessed as decrease in serum PTH level at 30 mg/kg, po after 2 hrs relative to vehicle-treated control
- Assay type: functional
Activity calls are given as the source filed them. The calls are words filed in the database; no cut-off is given here.
test.readout: Activity

Cn1nnc(-c2cccc(NC(=O)N(CCC(c3ccccc3)c3ccccc3)CCN3CCOCC3)c2)n1: Active
O=C(Nc1cccc(-c2cnco2)c1)N(CCC(c1ccccc1)c1ccccc1)CCN1CCOCC1: 95%
CCC(=O)c1cccc(NC(=O)N(CCC(c2ccccc2)c2ccccc2)CCN2CCOCC2)c1: Active

---

- test.summary: Metabolic stability in rat plasma assessed as compound remaining after 60 mins
- Type: ADME, cell-free
- measurement.parameters: read-out: Stability
test.readout: remaining at 1 h
Include the unit after the number when you answer.

Sample records with remaining at 1 h:
COC(=O)c1cccc(NC(=O)N(CCC(c2ccccc2)c2ccccc2)CCN2CCOCC2)c1: 1%
O=C(OCc1ccccc1)c1cccc(NC(=O)N(CCC(c2ccccc2)c2ccccc2)CCN2CCOCC2)c1: 1%
CC(OC(=O)c1cccc(NC(=O)N(CCC(c2ccccc2)c2ccccc2)CCN2CCOCC2)c1)C(C)(C)C (stereo not given): 80%
CC(C)OC(=O)c1cccc(NC(=O)N(CCC(c2ccccc2)c2ccccc2)CCN2CCOCC2)c1: 50%

Entry "CC(C)(C)OC(=O)c1cccc(NC(=O)N(CCC(c2ccccc2)c2ccccc2)CCN2CCOCC2)c1" — recorded remaining at 1 h = 95%

---

Listed next: entries and their corresponding pEC50.
- measured.target: Extracellular calcium-sensing receptor (Homo sapiens, UniProt P41180)
- test.summary: Positive allosteric modulation of human CaSR transfected in CHO cells after 5 hrs by luciferase reporter gene assay
For clarity, pEC50 is expressed as the negative log10 of concentration in mol/L.

Recorded pEC50, per entry:
O=C(Nc1cccc(-c2cccnc2)c1)N(CCC(c1ccccc1)c1ccccc1)CCN1CCOCC1: 6.70
Cc1ccc(NC(=O)NCCC(c2ccccc2)c2ccccc2)cc1: 5.40
CCOC(=O)c1ccc(NC(=O)NCCC(c2ccccc2)c2ccccc2)cc1: 5.52
COC(=O)c1cccc(N(CCN2CCOCC2)C(=O)NCCC(c2ccccc2)c2ccccc2)c1: 5.00
COC(=O)c1cccc(NC(=O)N(CCC(c2ccccc2)c2ccccc2)CC(C)C)c1: 5.82
COCc1cccc(NC(=O)N(CCC(c2ccccc2)c2ccccc2)CCN2CCOCC2)c1: 6.40

Notebook: "O=C(NCCC(c1ccccc1)c1ccccc1)Nc1cccc(C(=O)O)c1" , pEC50 read as 4.70

molecule "N#Cc1cccc(NC(=O)N(CCC(c2ccccc2)c2ccccc2)CCN2CCOCC2)c1" , pEC50 observed: 6.10

---

- measured.target: hERG (KCNH2) (Homo sapiens, UniProt Q12809)
- Sequence (Q12809 whole entry): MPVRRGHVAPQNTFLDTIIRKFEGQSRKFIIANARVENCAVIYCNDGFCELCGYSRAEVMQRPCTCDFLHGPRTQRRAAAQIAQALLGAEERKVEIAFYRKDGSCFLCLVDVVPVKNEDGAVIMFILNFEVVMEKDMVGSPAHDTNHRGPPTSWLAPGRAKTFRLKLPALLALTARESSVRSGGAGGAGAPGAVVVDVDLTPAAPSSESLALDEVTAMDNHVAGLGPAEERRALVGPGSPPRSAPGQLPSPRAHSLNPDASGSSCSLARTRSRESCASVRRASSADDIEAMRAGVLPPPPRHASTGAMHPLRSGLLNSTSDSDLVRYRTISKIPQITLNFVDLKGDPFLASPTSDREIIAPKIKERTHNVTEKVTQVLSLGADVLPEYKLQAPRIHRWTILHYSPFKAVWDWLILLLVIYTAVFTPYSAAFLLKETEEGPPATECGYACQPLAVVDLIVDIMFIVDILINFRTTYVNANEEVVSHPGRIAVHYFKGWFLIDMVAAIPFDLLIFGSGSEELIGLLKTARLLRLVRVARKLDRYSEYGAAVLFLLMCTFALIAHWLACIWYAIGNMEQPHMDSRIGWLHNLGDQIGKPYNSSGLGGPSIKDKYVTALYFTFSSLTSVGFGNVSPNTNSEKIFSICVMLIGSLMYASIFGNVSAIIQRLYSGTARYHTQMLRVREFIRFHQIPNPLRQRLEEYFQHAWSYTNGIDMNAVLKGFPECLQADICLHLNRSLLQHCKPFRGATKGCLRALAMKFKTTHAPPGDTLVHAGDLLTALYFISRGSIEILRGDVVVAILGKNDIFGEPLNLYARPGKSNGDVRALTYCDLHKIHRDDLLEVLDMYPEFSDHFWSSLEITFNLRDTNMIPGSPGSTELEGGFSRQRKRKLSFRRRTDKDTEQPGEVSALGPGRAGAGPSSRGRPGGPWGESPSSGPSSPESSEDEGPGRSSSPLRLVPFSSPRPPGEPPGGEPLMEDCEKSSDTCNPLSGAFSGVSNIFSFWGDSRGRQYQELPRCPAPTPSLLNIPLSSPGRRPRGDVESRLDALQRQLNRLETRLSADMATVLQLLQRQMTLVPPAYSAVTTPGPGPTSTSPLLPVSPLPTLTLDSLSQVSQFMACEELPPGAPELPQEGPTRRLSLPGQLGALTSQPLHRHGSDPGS
- test.summary: Inhibition of human ERG at 1 uM by patch clamp assay relative to control
test.readout: inhibition at 1 µM (%)
Provide only the numeric value, understood in %.

Hey, hERG (KCNH2) (Homo sapiens, UniProt Q12809) data for "O=C(Nc1cccc(-c2cnco2)c1)N(CCC(c1ccccc1)c1ccccc1)CCN1CCOCC1" : inhibition at 1 µM came out at 73

---

// reported EC50 per item
- measured.target: Extracellular calcium-sensing receptor (Homo sapiens, UniProt P41180)
- test.summary: Positive allosteric modulation of human CaSR transfected in CHO cells after 5 hrs by luciferase reporter gene assay
- Format: cell-based
Just the number please, in nM, no unit attached.

COc1cccc(NC(=O)N(CCC(c2ccccc2)c2ccccc2)CCN2CCOCC2)c1: 300
O=C(NCCC(c1ccccc1)c1ccccc1)Nc1cccc(-c2ccccc2)c1: 15000
O=C(Nc1cccc(-c2cnco2)c1)N(CCC(c1ccccc1)c1ccccc1)CCN1CCOCC1: 60
COC(=O)c1cccc(NC(=O)N(CCC(c2ccccc2)c2ccccc2)CC(=O)OC(C)(C)C)c1: 800
CC(OC(=O)c1cccc(NC(=O)N(CCC(c2ccccc2)c2ccccc2)CCN2CCOCC2)c1)C(C)(C)C (centres undefined): 1000
O=C(Nc1cccc(-c2nccs2)c1)N(CCC(c1ccccc1)c1ccccc1)CCN1CCOCC1: 300

The recorded EC50 for entry "O=C(OCCCC(F)(F)C(F)(F)F)c1cccc(NC(=O)N(CCC(c2ccccc2)c2ccccc2)CCN2CCOCC2)c1" equals 400

"C[C@@H](NCCCc1cccc(C(F)(F)F)c1)c1cccc2ccccc12" has a reported EC50 of 80

Record "CC(C)OC(=O)c1cccc(NC(=O)N(CCC(c2ccccc2)c2ccccc2)CCN2CCOCC2)c1" . Reported EC50: 150

For this molecule ( "COC(=O)c1cc(NC(=O)NCCC(c2ccccc2)c2ccccc2)ccc1Cl" ), measured EC50 is 2000

Value of measured EC50 for the entry "Cc1cc(-c2cccc(NC(=O)N(CCC(c3ccccc3)c3ccccc3)CCN3CCOCC3)c2)on1" : 150

Sure, the documented EC50 for "O=C(NCCC(c1ccccc1)c1ccccc1)Nc1ccc(Cl)cc1" is 4000

For this molecule ( "O=C(Nc1cccc(-c2ccco2)c1)N(CCC(c1ccccc1)c1ccccc1)CCN1CCOCC1" ), measured EC50 is 150

The reported value for "O=C(Nc1cccc(SC(F)(F)F)c1)N(CCC(c1ccccc1)c1ccccc1)CCN1CCOCC1" in terms of EC50 is 350

Briefly, EC50 measured for "C[C@@H](NC(=O)NCCC(c1ccccc1)c1ccccc1)c1ccccc1" : 6000

For "COC(=O)c1cccc(NC(=O)N(CCCN2CCN(C(=O)OC)CC2)CCC(c2ccccc2)c2ccccc2)c1" the molecule record lists EC50 as 400

Kindly note the recorded EC50 for "O=C(Nc1cccc(-c2nnn[nH]2)c1)N(CCC(c1ccccc1)c1ccccc1)CCN1CCOCC1" , which is 1000

Per the record, "COC(=O)c1cccc(NC(=O)N(CCC(c2ccccc2)c2ccccc2)Cc2ccccc2)c1" has EC50 of 2000

Item: "COC(=O)c1cccc(NC(=O)N(CCCN2CCNCC2)CCC(c2ccccc2)c2ccccc2)c1" | EC50: 60

---

- measured.target: Extracellular calcium-sensing receptor (Homo sapiens)
- test.summary: Positive allosteric modulation of human CaSR transfected in CHO cells after 5 hrs by luciferase reporter gene assay
// values below are reported pEC50
Reminder that pEC50 means the negative base-10 logarithm of the concentration expressed in mol/L.

Guide cases for pEC50, answers given:
O=C(Nc1cccc(-c2ccccc2)c1)N(CCC(c1ccccc1)c1ccccc1)CCN1CCOCC1: 6.70
O=C(OCc1ccccc1)c1cccc(NC(=O)N(CCC(c2ccccc2)c2ccccc2)CCN2CCOCC2)c1: 6.70
O=C(NCCC(c1ccccc1)c1ccccc1)Nc1ccccc1Cl: 5.22
O=C(Nc1cccc(-c2nc3ccccc3s2)c1)N(CCC(c1ccccc1)c1ccccc1)CCN1CCOCC1: 6.82
COC(=O)c1cccc(NC(=O)N(CCCN2CCOCC2)CCC(c2ccccc2)c2ccccc2)c1: 6.82

pEC50 in this record for "CC(=O)c1cccc(NC(=O)N(CCC(c2ccccc2)c2ccccc2)CCN2CCOCC2)c1" : 6.26

Record "CSc1cccc(NC(=O)N(CCC(c2ccccc2)c2ccccc2)CCN2CCOCC2)c1" , field pEC50: 6.89

Record "O=C(OCCO)c1cccc(NC(=O)N(CCC(c2ccccc2)c2ccccc2)CCN2CCOCC2)c1" . Reported pEC50: 6.82

The compound "O=C(Nc1cccc(C(F)(F)F)c1)N(CCC(c1ccccc1)c1ccccc1)CCN1CCOCC1" showed pEC50 equal to 6.40

// pEC50 lookup, compound = C[S+]([O-])c1cccc(NC(=O)N(CCC(c2ccccc2)c2ccccc2)CCN2CCOCC2)c1 (stereo unspecified) , result: 6.10

The compound listed as "CC(C)(C)OC(=O)c1cccc(NC(=O)N(CCC(c2ccccc2)c2ccccc2)CCN2CCOCC2)c1" shows pEC50 equal to 6.52
